For each entry below, report its cytotoxicity at 70.5 h value.
test: Human HepG2 cell viability assay in 384 well format; format: toxicity, cell-based; design: dose 125 nL, time 70.5 hour; concentration not given beside the values; details: HepG2 cells, read-out: Inhibition
Answers are plain numbers, in %.

These solved cases illustrate the format of a correct answer.
[[record]]
compound = "COCCn1cncc1CN1CCC(C(C)=O)(c2ccccc2)CC1"
value_reported = -15.1

[[record]]
compound = "OCc1cn(CC2CCN(C3CCSC3)CC2)nn1 (stereo not given)"
value_reported = -8.28

[[record]]
compound = "CC(=O)N1N=C(Cc2ccccc2)OC1C(=O)NCC(C)C (stereo not given)"
value_reported = -1.89

[[record]]
compound = "O=C1CC2(CCN(Cc3ccoc3)C2)CN1c1ccc2c(c1)OCO2 (stereo not given)"
value_reported = 3.34

[[record]]
compound = "Cc1cc(C)c2nc(CN3CC[C@@H](O)C3)cc(O)c2c1"
value_reported = -4.35


Answer for every listed entry: what is its cytotoxicity at 70.5 h? The entries follow.
1. COc1c(CNC2CCN(c3ncccn3)CC2)c(C)nn1C
2. CCSCc1ccnc(NC(=O)C2CCOC2)c1 (stereo not given)
3. COCCN1C[C@H]2CCN(C(C)=O)CC[C@H]2S1(=O)=O
4. CCN(CC(C)C#N)C(=O)CNc1cc(Cl)ccc1C(N)=O (stereo not given)
5. CSCc1noc(-c2nc3c([nH]2)CCCNC3=O)n1
6. COc1ccc(C(=O)C2CCCN(CCCn3cccn3)C2)c(OC)c1 (stereo not given)

Reply:
1: -8.59; 2: -4; 3: 0.94; 4: 3.41; 5: -4.67; 6: 20.9

Answer for every listed entry: what is its cytotoxicity at 70.5 h? The entries follow.
1. NC(=O)NC(CC(=O)N1CCc2sccc2C1)c1cccc(Br)c1 (stereo not given)
2. N#CC1(NC(=O)c2nccc3ccccc23)CCSCC1

Reply:
[-18.1, -9.79]

Answer for every listed entry: what is its cytotoxicity at 70.5 h? The entries follow.
1. c1cnnc(N2CCCC(NCc3ccncc3)C2)c1 (stereo not given)
2. O=C(C1CCCc2[nH]ncc21)N1CCCCCC1 (stereo not given)
3. Cc1nc(CN2CCO[C@@H]3CN(C(=O)CN(C)C)CC[C@@H]3C2)cs1

Reply:
1: -4.07; 2: -7.74; 3: -13.1

---

assay: Human HepG2 cell viability assay in 384 well format; type: toxicity, cell-based; design: dose 125 nL, time 70.5 hour; concentration not given beside the values; details: HepG2 cells, read-out: Inhibition
For each entry below, report its cytotoxicity at 70.5 h value.
Could you write the number and then its unit?

These solved cases illustrate the format of a correct answer.
[[record]]
compound = "Cc1ccc2c(c1)c(CNC(C)Cn1nc(C)cc1C)nn2C (stereo not drawn)"
value_reported = "2.8%"

[[record]]
compound = "O=C([C@@H]1CCCO1)N1CCOCC2(CCN(Cc3cccnc3)C2)C1 (stereo partly drawn)"
value_reported = "0.333%"


Now, please, on to the next compound.
Task item: Value lookup for cytotoxicity at 70.5 h; key = COc1ccc(NC(=O)N2CCN(CCSc3ccccc3)CC2)cc1
Reply: 3.81%

---

For each entry below, report its cytotoxicity at 70.5 h value.
test: Human HepG2 cell viability assay in 384 well format; assay type: toxicity, cell-based; parameters: dose 125 nL, time 70.5 hour; concentration not given beside the values; settings: HepG2 cells, read-out: Inhibition
Numbers only, in %.

Answer for every listed entry: what is its cytotoxicity at 70.5 h? The entries follow.
1. CNC(=O)c1sccc1S(=O)(=O)NC
2. CN(Cc1ccc(Cl)s1)C(=O)CN1CC(n2cccn2)C1
3. CN1CCN(C(=O)c2n[nH]c3c2CN(Cc2nccs2)CC3)CC1
4. CN(C)[C@@H]1CN(C(=O)COc2cccc(F)c2)C[C@H]1O
5. CCc1ncnc2c1CCN(Cc1ccc3c(c1)OCO3)CC2

Reply:
1: -6.63; 2: -14.6; 3: -12; 4: -9.79; 5: 4.52

Answer for every listed entry: what is its cytotoxicity at 70.5 h? The entries follow.
1. CCc1nccn1CC(=O)N1C[C@H]2CC[C@@H]1CN(C(=O)N(C)C)C2
2. O=C(Cc1ccc(F)cc1)N1CCN(CC(O)C2CC2)CC1 (centres undefined)
3. O=C(CN1CCSC(c2ccccc2)C1)NCc1ccccn1 (centres undefined)
4. Cc1ccc(NCc2cc(C#N)ccc2F)cc1-n1nnnc1C

Reply:
-3.56
-1.1
-5.23
-13.2

Answer for every listed entry: what is its cytotoxicity at 70.5 h? The entries follow.
1. COC(=O)c1ccc(Cn2cccc(C(F)(F)F)c2=O)s1
2. O=C(NCc1ccc(F)cc1)NCC(O)(c1ccco1)C1CC1 (centres undefined)
3. Cc1ccc(C(=O)N2CCN(Cc3cccs3)CC2)n1C
4. CCCn1ncnc1C(C)NC(=O)C1CCN(C(C)C)CC1 (centres undefined)
5. N#Cc1cccc(CN2CCn3cc(Cn4cccn4)nc3C2)c1

Reply:
-2.65
6.32
-14.9
-4.07
-16
